# targetOrTestSystem: Tyrosinase (Agaricus bisporus)
# Sequence (O42713 whole entry): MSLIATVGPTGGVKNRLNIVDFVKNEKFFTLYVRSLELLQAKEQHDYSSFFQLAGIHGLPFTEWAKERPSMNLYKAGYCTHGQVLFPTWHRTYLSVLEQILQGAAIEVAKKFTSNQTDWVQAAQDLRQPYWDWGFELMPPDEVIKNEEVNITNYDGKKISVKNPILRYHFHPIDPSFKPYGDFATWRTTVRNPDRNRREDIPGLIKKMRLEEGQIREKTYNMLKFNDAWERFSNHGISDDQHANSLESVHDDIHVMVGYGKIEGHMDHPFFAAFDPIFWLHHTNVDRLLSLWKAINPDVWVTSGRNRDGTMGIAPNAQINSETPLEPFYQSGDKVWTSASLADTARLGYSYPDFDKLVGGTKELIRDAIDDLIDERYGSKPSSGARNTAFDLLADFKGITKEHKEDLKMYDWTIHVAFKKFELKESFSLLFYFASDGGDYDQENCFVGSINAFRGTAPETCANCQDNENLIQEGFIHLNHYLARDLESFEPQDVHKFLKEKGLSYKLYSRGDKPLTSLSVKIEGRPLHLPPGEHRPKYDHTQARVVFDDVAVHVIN
measuredEndpoint: pIC50
pIC50 (log units): -log10 of the concentration in mol/L.

See these solved cases before continuing.
CC(=O)OC[C@H]1O[C@@H](Oc2ccc(C=C3C(=O)NC(=O)NC3=O)cc2)[C@H](OC(C)=O)[C@@H](OC(C)=O)[C@@H]1OC(C)=O : 2.90
CC(=O)OC[C@H]1O[C@@H](Oc2ccc(C=C3C(=O)NC(=O)NC3=O)c(O)c2)[C@H](OC(C)=O)[C@@H](OC(C)=O)[C@@H]1OC(C)=O : 2.76
CC(=O)OC[C@H]1O[C@@H](Oc2ccc(C=C3C(=O)NC(=S)NC3=O)cc2)[C@H](OC(C)=O)[C@H](OC(C)=O)[C@@H]1OC(C)=O : 3.47
CC(=O)OC[C@H]1O[C@@H](Oc2ccc(C=C3C(=O)NC(=S)NC3=O)cc2O)[C@H](OC(C)=O)[C@@H](OC(C)=O)[C@@H]1OC(C)=O : 4.30

Data request: pIC50 lookup needed for CC(=O)OC[C@H]1O[C@@H](Oc2cccc(C=C3C(=O)NC(=S)NC3=O)c2)[C@H](OC(C)=O)[C@@H](OC(C)=O)[C@@H]1OC(C)=O , thanks.
Data returned: 3.06
